For each of the compounds below, state its Activity.
# Test system: Triticum aestivum
# METHOD NOTES: Herbicidal activity against Triticum aestivum (wheat) assessed as killing at 6 kg/ha by post-emergent activity assay
# Format: functional
Answers are plain numbers, in %.

Past entries and their recorded results:
[
  {
    "QUERY SMILES": "Cc1ccc(OCc2nn3c(C)nc(=S)nc3s2)c(C)c1",
    "READING": 50
  },
  {
    "QUERY SMILES": "S=c1nc(COc2ccc(Cl)cc2Cl)n2nc(COc3ccc(Cl)cc3)sc2n1",
    "READING": 50
  }
]

Attention now turns to another entry.
Prompt line: Provide Activity, tested on Triticum aestivum, for O=c1c2ccccc2nc2sc(COc3ccc(Cl)cc3Cl)nn12 .
Response line: 50
